Biological target: T1, soluble human FcRn (shFcRn) (human, UniProt P55899 24-297; P61769 21-119, biotinylated with Sulfo-NHS-LC-Biotin in the ELISA; amine-coupled to a CM5 chip in SPR)
T1 construct: also called biotinylated shFcRn
T1 sequence (P55899 24-297 limits assumed, chain 1 of 2): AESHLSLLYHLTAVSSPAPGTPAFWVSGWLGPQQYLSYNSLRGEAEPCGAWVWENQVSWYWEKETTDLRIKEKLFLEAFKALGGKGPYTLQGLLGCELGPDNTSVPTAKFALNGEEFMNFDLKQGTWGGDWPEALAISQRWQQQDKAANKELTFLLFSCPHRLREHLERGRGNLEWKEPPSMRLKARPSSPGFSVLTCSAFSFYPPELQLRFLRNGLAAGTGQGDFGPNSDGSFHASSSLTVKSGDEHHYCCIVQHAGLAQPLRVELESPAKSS
T1 sequence (P61769 21-119 limits assumed, chain 2 of 2): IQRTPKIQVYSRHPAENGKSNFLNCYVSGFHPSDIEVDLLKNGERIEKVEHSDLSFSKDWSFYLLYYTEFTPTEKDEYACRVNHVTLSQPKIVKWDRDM
Test: competition ELISA vs human IgG
Starred links: 1 amine or outer side, 2 acyl side, 3 side chain; linkers in the order of their positions; H or OH if unused. Positions of bridges follow the written chain, without caps; N, C: chain ends. Non-standard residues stand in square brackets, D forms with d. No end group written: not given here. X1 = 3(R)‑3‑amino‑2‑oxo‑1‑piperidine‑acetic acid, O=C1[C@H](N[*:1])CCCN1CC(=O)[*:2]; NMeL = CN[C@@H](CC(C)C)C(=O)O; Pen = CC(C)(S)[C@H](N)C(=O)O; NMeA = CN[C@@H](C)C(=O)O
Assay Metric: pIC50
# pIC50 = -log10(concentration in molar units)

For record RF[Pen][NMeA]GHF[X1][NMeL]YPC-NH2 (disulfide 3-12 (inferred)) [Peptide No. 228] the listed pIC50 is 5.96
